System: Klebsiella pneumoniae
Settings: Concentration 32 ug.mL-1; ASSAY_TEST Inhibition of Bacterial Growth; detection method Absorption (OD600); MEDIA CAMHB; plate type 384well; NBS; CORNING #3640; time 18 hr
Description: Antibacterial activity against Klebsiella pneumoniae MDR ATCC 70063 (CO-ADD:GN_003); MIC in CAMBH media using NBS plates, by OD(600)
Measured potencies and affinities stand elsewhere.
Decision: Inhibition beneath 20% gives 1; Inhibition meeting or exceeding 20% gives -1.

[ask] Just wondering, is Inhibition of CC(C)(CN)C(O)C(=O)NCCC(=O)NCCc1ccccc1 (configuration not stated) below 20%?
[reply] -1

[ask] Quick check: Inhibition of CC(C)(CO)[C@@H](O)C(=O)NCCC(=O)NNCc1ccccc1 under 20%?
[reply] -1

[ask] Dear colleague, could you confirm whether Inhibition of CC(C)(C)C(O)C(=O)NCCC(=O)NCCc1ccccc1 (configuration not stated) falls below 20%? Thanks.
[reply] -1

[ask] A record lists CC(C)(CO)[C@H](O)C(=O)NCCc1cn(C[C@H]2O[C@@H](n3ccc(N)nc3=O)[C@H](O)[C@@H]2O)nn1 . Is its Inhibition below 20%?
[reply] 1

[ask] Decide: Inhibition of CC(C)(CO)[C@H](O)C(=O)NCCC(=O)NCc1cn(C[C@H]2O[C@@H](n3ccc(N)nc3=O)[C@H](O)[C@@H]2O)nn1 strictly below 20%?
[reply] 1

[ask] API: query returns whether the compound falls strictly under 20% in Inhibition. Query: CCCCCCCNS(=O)(=O)CCNC(=O)[C@H](O)C(C)(C)CO
[reply] 1

---

Tested on: Cryptococcus neoformans
Conditions: Concentration 32 ug.mL-1; ASSAY_TEST Inhibition of Fungal Growth; detection method Resazurin; Absorption (OD600-OD570); plate type 384well; NBS; CORNING #3640
Description: Antifungal activity against Cryptococcus neoformans H99 ATCC 208821 (CO-ADD:FG_002); MIC in YNB media using NBS plates, by Resazurin OD(600-570)
Measured potencies and affinities stand elsewhere.
PROPERTY: Inhibition (%)
Your answer should be a plain number; it is taken to be in %.

[ask] Please look up its Inhibition: CC(C)(CO)[C@H](O)C(=O)NCCC(=O)OCc1cn(C[C@H]2O[C@@H](n3ccc(N)nc3=O)[C@H](O)[C@@H]2O)nn1
[reply] -1.73

[ask] Data request, read-out Inhibition, for CC(C)(CO)[C@H](O)C(=O)NCCc1cn(C[C@H]2O[C@@H](n3ccc(N)nc3=O)[C@H](O)[C@@H]2O)nn1
[reply] -3.52

[ask] Would you mind telling me what Inhibition value was observed for CC(C)(CO)C(O)C(=O)NCCCOP(=O)(O)OCC1OC(n2ccc(N)nc2=O)C(O)C1O (stereo not drawn) ?
[reply] -6.1

[ask] What value of Inhibition has been reported for the following compound? CC(C)(CO)[C@@H](O)C(=O)NCCC(=S)NCCc1ccccc1
[reply] 0.82

[ask] Fill in: Inhibition of CC(C)(COP(=O)(O)O)[C@@H](O)C(=O)NCCC(=O)NCCc1ccccc1 is ___
[reply] 21.44

[ask] Inhibition for CC(C)(CO)[C@H](O)C(=O)NCc1cn(C[C@H]2O[C@@H](n3ccc(N)nc3=O)[C@H](O)[C@@H]2O)nn1 ?
[reply] 6.11

[ask] Find the recorded Inhibition belonging to CC(C)(CO)[C@@H](O)C(=O)NCCC(=O)NNCc1ccccc1 and report it.
[reply] -4.98

[ask] Fill blank: measured Inhibition of the compound CC(C)(CN)C(O)C(=O)NCCC(=O)NCCc1ccccc1 (stereo not drawn) is ____.
[reply] 42.65
